Source of measurements: patent US20240034792A1

- target.entity: T1, Human PD-1 protein with histidine and avi tags (ACRO Biosystems, PD1-H82E4) (human, UniProt Q15116 25-167)
- T1 construct: Captured on streptavidin (SA) sensors in the BLI assay; not shown: histidine and avi tags
- protocol.notes: BLI; ratio of kdis, apparently PR005090 over the variant
- Experimental: Human PD-1 proteins with histidine and avi tags were purchased from the manufacturer ACRO Biosystems (Cat#: PD1-H82E4), and the assay buffer was 1× kinetics buffer (diluted from 10× kinetics buffer (ForteBio, Cat#: 18-1105)) for kinetic assay and dilution of antigens and antibodies. The binding kinetics between the antigen and the antibody was analyzed by the biolayer interferometry (BLI) technique using an Octet molecular interaction analyzer (ForteBio, model: Octet Red96e). […]
Assign Criterion met whenever kdis ratio does not fall below 5; assign Criterion not met whenever it does.

{"columns": ["binder", "class.assignment"],
 "data": [
  ["PR005104 (VHH, Monovalent single-domain (VH) variant of PR002481 with Flag-6His tag) VHH: EVQLVETGGGLIQPGGSLRLSCAASGFNVSSHYMSWVRQAPGKGREWVSIIDISGSTYYADSVKGRFTISRDNSKNRLYLQMNSLRAEDTAMYYCARATAVAEKNGYNYPFNYWGQGTLVTVSS", "Criterion not met"],
  ["PR005096 (VHH, Monovalent single-domain (VH) variant of PR002481 with Flag-6His tag) VHH: EVQLVETGGGLIQPGGSLRLSCAASGFNVSSHYMSWVRQAPGKGREWVSIIDGGGSTYYADSVKGRFTISRDNSKNRLYLQMNSLRAEDTAMYYCARATRVPEKGGYNYPFNYWGQGTLVTVSS", "Criterion not met"],
  ["PR005141 (VHH, Monovalent single-domain (VH) variant of PR002481 with Flag-6His tag) VHH: EVQLVETGGGLIQPGGSLRLSCAASGFNVSYFYMSWVRQAPGKGREWVSIIDKGGSGYYAASVKGRFTISRDNSKNRLYLQMNSLRAEDTAMYYCARATEVREKNGYNYPFNYWGQGTLVTVSS", "Criterion met"],
  ["PR005145 (VHH, Monovalent single-domain (VH) variant of PR002481 with Flag-6His tag) VHH: EVQLVETGGGLIQPGGSLRLSCAASGFNVSFYYMSWVRQAPGKGREWVSIIDKGGSTYYGDSVKGRFTISRDNSKNRLYLQMNSLRAEDTAMYYCARATEVREKNGYNYPFNYWGQGTLVTVSS", "Criterion met"],
  ["PR005093 (VHH, Monovalent single-domain (VH) variant of PR002481 with Flag-6His tag) VHH: EVQLVETGGGLIQPGGSLRLSCAASGFNVSSHYMSWVRQAPGKGREWVSIIDGGGSTYYADSVKGRFTISRDNSKNRLYLQMNSLRAEDTAMYYCARATRVREANGYNYPFNYWGQGTLVTVSS", "Criterion not met"],
  ["PR005144 (VHH, Monovalent single-domain (VH) variant of PR002481 with Flag-6His tag) VHH: EVQLVETGGGLIQPGGSLRLSCAASGFNVSFYYMSWVRQAPGKGREWVSIIDKSGSTYYAASVKGRFTISRDNSKNRLYLQMNSLRAEDTAMYYCARATEVREKNGYNYPFNYWGQGTLVTVSS", "Criterion met"],
  ["PR005101 (VHH, Monovalent single-domain (VH) variant of PR002481 with Flag-6His tag) VHH: EVQLVETGGGLIQPGGSLRLSCAASGFNVSSHYMSWVRQAPGKGREWVSIIDKGGGTYYADSVKGRFTISRDNSKNRLYLQMNSLRAEDTAMYYCARATAVAEKNGYNYPFNYWGQGTLVTVSS", "Criterion met"],
  ["PR005149 (VHH, Monovalent single-domain (VH) variant of PR002481 with Flag-6His tag) VHH: EVQLVETGGGLIQPGGSLRLSCAASGFNVSSHYMSWVRQAPGKGREWVSIIDKAGSGYYADSVKGRFTISRDNSKNRLYLQMNSLRAEDTAMYYCARATEVREKQGYNYPFNYWGQGTLVTVSS", "Criterion met"],
  ["PR005148 (VHH, Monovalent single-domain (VH) variant of PR002481 with Flag-6His tag) VHH: EVQLVETGGGLIQPGGSLRLSCAASGFNVSSHYMSWVRQAPGKGREWVSIIDKAGSGYYAASVKGRFTISRDNSKNRLYLQMNSLRAEDTAMYYCARATEVREKNGYNYPFNYWGQGTLVTVSS", "Criterion met"],
  ["PR005146 (VHH, Monovalent single-domain (VH) variant of PR002481 with Flag-6His tag) VHH: EVQLVETGGGLIQPGGSLRLSCAASGFNVSFHYMSWVRQAPGKGREWVSIIDGAGSGYYAASVKGRFTISRDNSKNRLYLQMNSLRAEDTAMYYCARATMVREKQGYNYPFNYWGQGTLVTVSS", "Criterion not met"],
  ["PR005098 (VHH, Monovalent single-domain (VH) variant of PR002481 with Flag-6His tag) VHH: EVQLVETGGGLIQPGGSLRLSCAASGFNVSSHYMSWVRQAPGKGREWVSIIDGGGSTYYADSVKGRFTISRDNSKNRLYLQMNSLRAEDTAMYYCARATQVREKGGYNYPFNYWGQGTLVTVSS", "Criterion not met"],
  ["PR005100 (VHH, Monovalent single-domain (VH) variant of PR002481 with Flag-6His tag) VHH: EVQLVETGGGLIQPGGSLRLSCAASGFNVSSHYMSWVRQAPGKGREWVSIIDRGGSKYYADSVKGRFTISRDNSKNRLYLQMNSLRAEDTAMYYCARATAVAEKNGYNYPFNYWGQGTLVTVSS", "Criterion not met"],
  ["PR005102 (VHH, Monovalent single-domain (VH) variant of PR002481 with Flag-6His tag) VHH: EVQLVETGGGLIQPGGSLRLSCAASGFNVSSHYMSWVRQAPGKGREWVSIIDRGGSTYYADSVKGRFTISRDNSKNRLYLQMNSLRAEDTAMYYCARATAVAEKNGYNYPFNYWGQGTLVTVSS", "Criterion not met"],
  ["PR005103 (VHH, Monovalent single-domain (VH) variant of PR002481 with Flag-6His tag) VHH: EVQLVETGGGLIQPGGSLRLSCAASGFNVSSHYMSWVRQAPGKGREWVSIIDRGGGTYYADSVKGRFTISRDNSKNRLYLQMNSLRAEDTAMYYCARATAVAEKNGYNYPFNYWGQGTLVTVSS", "Criterion not met"],
  ["PR005147 (VHH, Monovalent single-domain (VH) variant of PR002481 with Flag-6His tag) VHH: EVQLVETGGGLIQPGGSLRLSCAASGFNVSYYYMSWVRQAPGKGREWVSIIDKAGSTYYGASVKGRFTISRDNSKNRLYLQMNSLRAEDTAMYYCARATMVREKNGYNYPFNYWGQGTLVTVSS", "Criterion met"]
]}
